Test system: OCI-AML5 (Acute Myeloid Leukemia)
Assay: combination Emax (second highest fraction inhibited in the dose matrix, 72 h); higher = more inhibition; extreme values may be limits of the assay
Outcome Measure: combination Emax
Number only, no unit.

[ask] Look up combination Emax of CC1(C)CCC(CN2CCN(c3ccc(C(=O)NS(=O)(=O)c4ccc(NCC5CCOCC5)c([N+](=O)[O-])c4)c(Oc4cnc5[nH]ccc5c4)c3)CC2)=C(c2ccc(Cl)cc2)C1 [Venetoclax] + C=CCn1c(=O)c2cnc(Nc3ccc(N4CCN(C)CC4)cc3)nc2n1-c1cccc(C(C)(C)O)n1 [AZD1775] (first compound max 1 µM, partner max 1 µM) and report it.
[reply] 1

[ask] Look up combination Emax of CCc1c2c(nc3ccc(O)cc13)-c1cc3c(c(=O)n1C2)COC(=O)[C@]3(O)CC [SN-38] + CN(C)CCCOc1ccc(-c2ccc3ncc4c(c3c2)n(C2CCOCC2)c(=O)n4C)cn1 [AZD0156] (first compound max 0.3 µM, 7x7, partner max 1 µM) and report it.
[reply] 0.998

[ask] Look up combination Emax of CC(=O)c1c(C)c2cnc(Nc3ccc(N4CCNCC4)cn3)nc2n(C2CCCC2)c1=O [Palbociclib] + CN(CC[C@H](CSC1=CC=CC=C1)NC2=C(C=C(C=C2)S(=O)(=O)NC(=O)C3=CC=C(C=C3)N4CCC(CC4)[C@H](C5=CC=CC=C5C6=CC=C(C=C6)Cl)O)S(=O)(=O)C(F)(F)F)CCO [AZD4320] (first compound max 10 µM, 7x7, partner max 1 µM) and report it.
[reply] 1

[ask] Look up combination Emax of Cn1cnc2c(F)c(Nc3ccc(Br)cc3Cl)c(C(=O)NOCCO)cc21 [Selumetinib] + CC(C)n1c(=O)n(C)c2cnc3cc(F)c(-c4ccc(OCCCN5CCCCC5)nc4)cc3c21 [AZD1390] (first compound max 10 µM, 7x7, partner max 0.3 µM) and report it.
[reply] 0.9

* * *

Tested on: SK-MM-2 (Plasma Cell Myeloma)
Test: combination Emax (second highest fraction inhibited in the dose matrix, 72 h); higher = more inhibition; extreme values may be limits of the assay
Please go through the items and note down their combination Emax.
Number only, no unit.

[ask] Look up combination Emax of CCN(CCO)CCCOc1ccc2c(Nc3cc(CC(=O)Nc4cccc(F)c4)[nH]n3)ncnc2c1 [AZD2811] + C=CCn1c(=O)c2cnc(Nc3ccc(N4CCN(C)CC4)cc3)nc2n1-c1cccc(C(C)(C)O)n1 [AZD1775] (first compound max 1 µM, partner max 1 µM) and report it.
[reply] 0.644

[ask] Look up combination Emax of CCc1c2c(nc3ccc(O)cc13)-c1cc3c(c(=O)n1C2)COC(=O)[C@]3(O)CC [SN-38] + CN(C)CCCOc1ccc(-c2ccc3ncc4c(c3c2)n(C2CCOCC2)c(=O)n4C)cn1 [AZD0156] (first compound max 0.3 µM, 7x7, partner max 1 µM) and report it.
[reply] 0.883

[ask] Look up combination Emax of Cn1cnc2c(F)c(Nc3ccc(Br)cc3Cl)c(C(=O)NOCCO)cc21 [Selumetinib] + CCN(CCO)CCCOc1ccc2c(Nc3cc(CC(=O)Nc4cccc(F)c4)[nH]n3)ncnc2c1 [AZD2811] (first compound max 10 µM, 7x7, partner max 1 µM) and report it.
[reply] 0.161

[ask] Look up combination Emax of Cc1c2c(nn1C)CSCc1cc(n(C)n1)CSc1cc(c3ccccc3c1)OCCCc1c(C(=O)O)n(C)c3c-2c(Cl)ccc13 [AZD5991] + C[C@@H]1COCCN1C2=NC(=NC(=C2)C3(CC3)[S@](=N)(=O)C)C4=C5C=CNC5=NC=C4 [AZD6738] (first compound max 1 µM, 7x7, partner max 10 µM) and report it.
[reply] 0.637

* * *

Please go through the items and note down their Bliss excess.
System: NCI-H1155 (Non-Small Cell Lung Carcinoma)
Experiment: Bliss excess, mean over the matrix (fraction); higher = more synergy

[ask] Look up Bliss excess of C=CCn1c(=O)c2cnc(Nc3ccc(N4CCN(C)CC4)cc3)nc2n1-c1cccc(C(C)(C)O)n1 [AZD1775] + C1CN(CCC1(C(=O)N[C@@H](CCO)C2=CC=C(C=C2)Cl)N)C3=NC=NC4=C3C=CN4 [Capivasertib] (first compound max 3 µM, partner max 3 µM) and report it.
[reply] 0.0056

[ask] Look up Bliss excess of CN(C)CCCOc1ccc(-c2ccc3ncc4c(c3c2)n(C2CCOCC2)c(=O)n4C)cn1 [AZD0156] + O=C(c1cc(Cc2n[nH]c(=O)c3ccccc23)ccc1F)N1CCN(C(=O)C2CC2)CC1 [Olaparib] (first compound max 3 µM, partner max 3 µM) and report it.
[reply] 0.103

* * *

System: SNU-175 (Colorectal Carcinoma)
Assay: Bliss excess, mean over the matrix (fraction); higher = more synergy
Outcome Measure: Bliss excess
Number only, no unit.

[ask] Answer briefly: Bliss excess recorded on SNU-175 (Colorectal Carcinoma) for CN(C)CCCOc1ccc(-c2ccc3ncc4c(c3c2)n(C2CCOCC2)c(=O)n4C)cn1 [AZD0156] + O=C(c1cc(Cc2n[nH]c(=O)c3ccccc23)ccc1F)N1CCN(C(=O)C2CC2)CC1 [Olaparib] (first compound max 3 µM, partner max 3 µM)
[reply] 0.105

[ask] Answer briefly: Bliss excess recorded on SNU-175 (Colorectal Carcinoma) for COc1cccc(OCCCN)c1-c1cc(Nc2cnc(C#N)cn2)n[nH]1 [Prexasertib] + Cc1cc2ncnn2cc1Nc1ncc2c(n1)n(C1CCOCC1)c(=O)n2C [AZD7648] (first compound max 1 µM, 7x7, partner max 10 µM)
[reply] 0.0311

[ask] Answer briefly: Bliss excess recorded on SNU-175 (Colorectal Carcinoma) for C=CCn1c(=O)c2cnc(Nc3ccc(N4CCN(C)CC4)cc3)nc2n1-c1cccc(C(C)(C)O)n1 [AZD1775] + C[C@@H]1COCCN1C2=NC(=NC(=C2)C3(CC3)[S@](=N)(=O)C)C4=C5C=CNC5=NC=C4 [AZD6738] (first compound max 1 µM, partner max 10 µM)
[reply] 0.039

[ask] Answer briefly: Bliss excess recorded on SNU-175 (Colorectal Carcinoma) for COc1nnc2ccc(N3CCC(c4ccc(OCCN5CCN(C)C(=O)[C@H]5C)cc4)CC3)nn12 [AZD5153] + Cc1c2c(nn1C)CSCc1cc(n(C)n1)CSc1cc(c3ccccc3c1)OCCCc1c(C(=O)O)n(C)c3c-2c(Cl)ccc13 [AZD5991] (first compound max 1 µM, 7x7, partner max 1 µM)
[reply] 0.0113

[ask] Answer briefly: Bliss excess recorded on SNU-175 (Colorectal Carcinoma) for Cc1cc2ncnn2cc1Nc1ncc2c(n1)n(C1CCOCC1)c(=O)n2C [AZD7648] + C[C@@H]1COCCN1C2=NC(=NC(=C2)C3(CC3)[S@](=N)(=O)C)C4=C5C=CNC5=NC=C4 [AZD6738] (first compound max 10 µM, 7x7, partner max 10 µM)
[reply] -0.0374

[ask] Answer briefly: Bliss excess recorded on SNU-175 (Colorectal Carcinoma) for CN(C)CCCOc1ccc(-c2ccc3ncc4c(c3c2)n(C2CCOCC2)c(=O)n4C)cn1 [AZD0156] + C[C@@H]1COCCN1C2=NC(=NC(=C2)C3(CC3)[S@](=N)(=O)C)C4=C5C=CNC5=NC=C4 [AZD6738] (first compound max 1 µM, 7x7, partner max 10 µM)
[reply] 0.0006

[ask] Answer briefly: Bliss excess recorded on SNU-175 (Colorectal Carcinoma) for CN(CCO)CC[C@H](CSc1ccccc1)Nc1ccc(S(=O)(=O)NC(=O)c2ccc(N3CCC([C@@H](O)c4ccccc4-c4ccc(Cl)cc4)CC3)cc2)cc1S(=O)(=O)C(F)(F)F [AZD4320] + C[C@@H](Nc1cc(F)cc(F)c1)c1cc(C(=O)N(C)C)cc2c(=O)cc(N3CCOCC3)oc12 [AZD8186] (first compound max 1 µM, 7x7, partner max 3 µM)
[reply] -0.0233

* * *

Please go through the items and note down their combination Emax.
Tested on: LOUCY (T-Lymphoblastic Leukemia)
Experiment: combination Emax (second highest fraction inhibited in the dose matrix, 72 h); higher = more inhibition; extreme values may be limits of the assay
Number only, no unit.

[ask] Look up combination Emax of CC(=O)c1c(C)c2cnc(Nc3ccc(N4CCNCC4)cn3)nc2n(C2CCCC2)c1=O [Palbociclib] + Cn1cnc2c(F)c(Nc3ccc(Br)cc3Cl)c(C(=O)NOCCO)cc21 [Selumetinib] (first compound max 10 µM, 7x7, partner max 10 µM) and report it.
[reply] 0.278

[ask] Look up combination Emax of Cc1cc2ncnn2cc1Nc1ncc2c(n1)n(C1CCOCC1)c(=O)n2C [AZD7648] + O=C(c1cc(Cc2n[nH]c(=O)c3ccccc23)ccc1F)N1CCN(C(=O)C2CC2)CC1 [Olaparib] (first compound max 10 µM, 7x7, partner max 10 µM) and report it.
[reply] 0.444

[ask] Look up combination Emax of CC1(C)CCC(CN2CCN(c3ccc(C(=O)NS(=O)(=O)c4ccc(NCC5CCOCC5)c([N+](=O)[O-])c4)c(Oc4cnc5[nH]ccc5c4)c3)CC2)=C(c2ccc(Cl)cc2)C1 [Venetoclax] + C[C@@H]1COCCN1C2=NC(=NC(=C2)C3(CC3)[S@](=N)(=O)C)C4=C5C=CNC5=NC=C4 [AZD6738] (first compound max 1 µM, 7x7, partner max 10 µM) and report it.
[reply] 1

[ask] Look up combination Emax of Cc1c2c(nn1C)CSCc1cc(n(C)n1)CSc1cc(c3ccccc3c1)OCCCc1c(C(=O)O)n(C)c3c-2c(Cl)ccc13 [AZD5991] + Cc1cc2ncnn2cc1Nc1ncc2c(n1)n(C1CCOCC1)c(=O)n2C [AZD7648] (first compound max 1 µM, 7x7, partner max 10 µM) and report it.
[reply] 0.82

[ask] Look up combination Emax of COc1cccc2c1C(=O)c1c(O)c3c(c(O)c1C2=O)C[C@@](O)(C(=O)CO)C[C@@H]3O[C@H]1C[C@H](N)[C@H](O)[C@H](C)O1 [Doxorubicin] + Cc1cc2ncnn2cc1Nc1ncc2c(n1)n(C1CCOCC1)c(=O)n2C [AZD7648] (first compound max 1 µM, 7x7, partner max 10 µM) and report it.
[reply] 0.943

[ask] Look up combination Emax of O=C(c1cc(Cc2n[nH]c(=O)c3ccccc23)ccc1F)N1CCN(C(=O)C2CC2)CC1 [Olaparib] + CC1(C)CCC(CN2CCN(c3ccc(C(=O)NS(=O)(=O)c4ccc(NCC5CCOCC5)c([N+](=O)[O-])c4)c(Oc4cnc5[nH]ccc5c4)c3)CC2)=C(c2ccc(Cl)cc2)C1 [Venetoclax] (first compound max 10 µM, 7x7, partner max 1 µM) and report it.
[reply] 1

[ask] Look up combination Emax of Cc1c2c(nn1C)CSCc1cc(n(C)n1)CSc1cc(c3ccccc3c1)OCCCc1c(C(=O)O)n(C)c3c-2c(Cl)ccc13 [AZD5991] + Nc1ccn([C@@H]2O[C@H](CO)[C@@H](O)C2(F)F)c(=O)n1 [Gemcitabine] (first compound max 1 µM, 7x7, partner max 0.3 µM) and report it.
[reply] 0.774

[ask] Look up combination Emax of C=CCn1c(=O)c2cnc(Nc3ccc(N4CCN(C)CC4)cc3)nc2n1-c1cccc(C(C)(C)O)n1 [AZD1775] + C1CN(CCC1(C(=O)N[C@@H](CCO)C2=CC=C(C=C2)Cl)N)C3=NC=NC4=C3C=CN4 [Capivasertib] (first compound max 3 µM, partner max 3 µM) and report it.
[reply] 1

[ask] Look up combination Emax of Cc1c2c(nn1C)CSCc1cc(n(C)n1)CSc1cc(c3ccccc3c1)OCCCc1c(C(=O)O)n(C)c3c-2c(Cl)ccc13 [AZD5991] + CC(=O)O[C@H]1C(=O)[C@@]2(C)[C@H]([C@H](OC(=O)c3ccccc3)[C@]3(O)C[C@H](OC(=O)[C@H](O)[C@@H](NC(=O)c4ccccc4)c4ccccc4)C(C)=C1C3(C)C)[C@]1(OC(C)=O)CO[C@@H]1C[C@@H]2O [Paclitaxel] (first compound max 1 µM, 7x7, partner max 3 µM) and report it.
[reply] 0.898

[ask] Look up combination Emax of C[C@@H](c1ccc2nccn2c1)n1nnc2ncc(-c3cnn(C)c3)nc21 [Savolitinib] + CC1(C)CCC(CN2CCN(c3ccc(C(=O)NS(=O)(=O)c4ccc(NCC5CCOCC5)c([N+](=O)[O-])c4)c(Oc4cnc5[nH]ccc5c4)c3)CC2)=C(c2ccc(Cl)cc2)C1 [Venetoclax] (first compound max 1 µM, 7x7, partner max 1 µM) and report it.
[reply] 0.976

[ask] Look up combination Emax of Cc1cc2ncnn2cc1Nc1ncc2c(n1)n(C1CCOCC1)c(=O)n2C [AZD7648] + CCN(CCO)CCCOc1ccc2c(Nc3cc(CC(=O)Nc4cccc(F)c4)[nH]n3)ncnc2c1 [AZD2811] (first compound max 10 µM, 7x7, partner max 1 µM) and report it.
[reply] 0.948

[ask] Look up combination Emax of C=CCn1c(=O)c2cnc(Nc3ccc(N4CCN(C)CC4)cc3)nc2n1-c1cccc(C(C)(C)O)n1 [AZD1775] + CCc1c2c(nc3ccc(O)cc13)-c1cc3c(c(=O)n1C2)COC(=O)[C@]3(O)CC [SN-38] (first compound max 1 µM, partner max 0.3 µM) and report it.
[reply] 0.995

[ask] Look up combination Emax of CCN(CCO)CCCOc1ccc2c(Nc3cc(CC(=O)Nc4cccc(F)c4)[nH]n3)ncnc2c1 [AZD2811] + C[C@@H]1COCCN1C2=NC(=NC(=C2)C3(CC3)[S@](=N)(=O)C)C4=C5C=CNC5=NC=C4 [AZD6738] (first compound max 1 µM, 7x7, partner max 10 µM) and report it.
[reply] 1
